Form: system (IL-2-Inducible T-Cell Kinase (ITK) (Homo sapiens (Human), UniProt Q08881)), quantity (log10 IC50), values below.
Lab note - IC50 converted to log10 from values in nM.

Consider the following illustrative entries.
Cc1cc2[nH]c(-c3n[nH]c4c3C[C@@H]3C[C@]3(C)C4)nc2cc1N(C)C(=O)CN1CCCCC1=O [Example 20] :: 0.60
Cc1cc2[nH]c(-c3n[nH]c4c3C[C@@H]3C[C@]3(C)C4)nc2cc1N(C)C(=O)C1(F)CC1 [Example 32] :: 0.90
Cc1cc2[nH]c(-c3n[nH]c4c3C[C@@H]3C[C@]3(C)C4)nc2cc1N(C)C(=O)CN1CCCCCC1=O [Example 34] :: 0.60

The reported value for CC(=O)N(C)c1ccc2[nH]c(-c3n[nH]c4c3C[C@@H]3C(F)(F)[C@]3(C)C4)nc2c1 [Example 2] in terms of log10 IC50 is 0.60

Item: Cc1cc2nc(-c3n[nH]c4c3C[C@@H]3C[C@]3(C)C4)[nH]c2cc1N(C)C(=O)C1C[C@@H]2[C@H](C1)C2(F)F (stereo partly drawn) [Example 13] | log10 IC50: 0.85

Reported log10 IC50 ( Cc1cc2[nH]c(-c3n[nH]c4c3C[C@@H]3C[C@]3(C)C4)nc2cc1N(C)C(=O)C(C)(C)F [Example 28] ) = 0.85

Entry CCC(C(=O)N(C)c1cc2nc(-c3n[nH]c4c3C[C@@H]3C[C@]3(C)C4)[nH]c2cc1C)N1CCCC1=O (stereo partly drawn) [Example 37] , log10 IC50 reported as 1.79

The recorded log10 IC50 for CCCC(=O)N(C)c1cc2nc(-c3n[nH]c4c3C[C@@H]3C[C@]3(C)C4)[nH]c2cc1C [Example 26] is 0.78

Reported log10 IC50 for Cc1cc2[nH]c(-c3n[nH]c4c3C[C@@H]3C[C@]3(C)C4)nc2cc1N(C)C(=O)CN(C)C(=O)C(C)C [Example 30] was 0.48

Source: patent US20240132477A1
